// data source = paper PMC10397247

# TARGET DESC: T1, 4H1401-AA
# T1 chain: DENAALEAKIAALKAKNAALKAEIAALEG
# PROCEDURE TEXT: two-hybrid library CCmax;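 note: natural log of median RNA to DNA barcode read ratio; higher means stronger binding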
# CONDITION INFO: mean of both orientations
In this section, each of the binders is paired with its reported interaction score.
MEASURED PARAMETER: interaction score

>>> assay_result("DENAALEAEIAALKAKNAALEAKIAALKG [4H1142-AA]")
0.545
>>> assay_result("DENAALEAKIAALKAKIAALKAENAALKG [4H1388-AA]")
-2
>>> assay_result("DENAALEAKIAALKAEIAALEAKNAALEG [4H1351-AA]")
-1.25
